Taken from patent US20130315843A1.

- target: human TRPA1 (Homo sapiens)
- Sequence (O75762 whole entry): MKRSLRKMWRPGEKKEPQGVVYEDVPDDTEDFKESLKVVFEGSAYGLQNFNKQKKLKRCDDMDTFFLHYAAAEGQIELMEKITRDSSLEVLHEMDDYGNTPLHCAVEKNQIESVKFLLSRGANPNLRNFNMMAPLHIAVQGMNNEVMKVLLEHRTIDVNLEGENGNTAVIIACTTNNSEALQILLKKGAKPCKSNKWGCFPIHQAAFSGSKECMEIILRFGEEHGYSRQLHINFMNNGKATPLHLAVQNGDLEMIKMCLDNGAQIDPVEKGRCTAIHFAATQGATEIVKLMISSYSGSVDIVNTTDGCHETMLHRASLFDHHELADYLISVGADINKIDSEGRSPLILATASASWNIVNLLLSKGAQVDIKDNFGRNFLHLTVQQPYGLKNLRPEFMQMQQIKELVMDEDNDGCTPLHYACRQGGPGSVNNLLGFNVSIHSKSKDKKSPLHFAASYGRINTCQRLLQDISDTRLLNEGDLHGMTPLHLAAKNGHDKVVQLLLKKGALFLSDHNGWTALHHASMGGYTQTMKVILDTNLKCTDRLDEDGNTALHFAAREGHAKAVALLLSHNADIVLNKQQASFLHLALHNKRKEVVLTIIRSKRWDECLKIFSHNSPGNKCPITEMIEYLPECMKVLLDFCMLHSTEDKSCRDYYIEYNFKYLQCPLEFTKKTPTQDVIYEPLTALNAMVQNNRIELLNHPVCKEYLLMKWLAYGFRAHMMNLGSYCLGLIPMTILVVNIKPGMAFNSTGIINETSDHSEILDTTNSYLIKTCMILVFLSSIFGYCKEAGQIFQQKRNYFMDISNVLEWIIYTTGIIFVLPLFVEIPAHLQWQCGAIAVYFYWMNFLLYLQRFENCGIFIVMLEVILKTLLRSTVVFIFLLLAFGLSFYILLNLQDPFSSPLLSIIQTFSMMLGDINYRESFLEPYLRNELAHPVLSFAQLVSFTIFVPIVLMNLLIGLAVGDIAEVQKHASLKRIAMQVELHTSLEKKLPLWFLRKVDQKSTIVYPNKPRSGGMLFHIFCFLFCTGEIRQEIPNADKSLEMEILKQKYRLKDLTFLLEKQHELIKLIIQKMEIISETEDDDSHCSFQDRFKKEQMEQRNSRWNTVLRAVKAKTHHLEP
- experiment_summary: FLIPR Ca2+ assay, reduction of hydrogen peroxide activation of TRPA1
- Assay type: cell-based
- Set-up: expressed in transfected cells
- measurement_parameters: compound 100 μM against 200 μM hydrogen peroxide; Sets 1-4
property: Average Ca++ Counts
Please make sure the unit comes right after the number.

// solved cases for Average Ca++ Counts follow
CSCCC(C)=O; 3322.5 Counts
c1ccc2ncccc2c1; 3440.0 Counts

We next turn to a different compound, shown below.
*Q* Provide Average Ca++ Counts value for the following compound: CCCCCC(=O)OC(C)C [isopropyl hexanoate]
*A* 2862.0 Counts

----------
- target: human TRPV1 (Homo sapiens, UniProt Q8NER1)
- Sequence (Q8NER1 whole entry): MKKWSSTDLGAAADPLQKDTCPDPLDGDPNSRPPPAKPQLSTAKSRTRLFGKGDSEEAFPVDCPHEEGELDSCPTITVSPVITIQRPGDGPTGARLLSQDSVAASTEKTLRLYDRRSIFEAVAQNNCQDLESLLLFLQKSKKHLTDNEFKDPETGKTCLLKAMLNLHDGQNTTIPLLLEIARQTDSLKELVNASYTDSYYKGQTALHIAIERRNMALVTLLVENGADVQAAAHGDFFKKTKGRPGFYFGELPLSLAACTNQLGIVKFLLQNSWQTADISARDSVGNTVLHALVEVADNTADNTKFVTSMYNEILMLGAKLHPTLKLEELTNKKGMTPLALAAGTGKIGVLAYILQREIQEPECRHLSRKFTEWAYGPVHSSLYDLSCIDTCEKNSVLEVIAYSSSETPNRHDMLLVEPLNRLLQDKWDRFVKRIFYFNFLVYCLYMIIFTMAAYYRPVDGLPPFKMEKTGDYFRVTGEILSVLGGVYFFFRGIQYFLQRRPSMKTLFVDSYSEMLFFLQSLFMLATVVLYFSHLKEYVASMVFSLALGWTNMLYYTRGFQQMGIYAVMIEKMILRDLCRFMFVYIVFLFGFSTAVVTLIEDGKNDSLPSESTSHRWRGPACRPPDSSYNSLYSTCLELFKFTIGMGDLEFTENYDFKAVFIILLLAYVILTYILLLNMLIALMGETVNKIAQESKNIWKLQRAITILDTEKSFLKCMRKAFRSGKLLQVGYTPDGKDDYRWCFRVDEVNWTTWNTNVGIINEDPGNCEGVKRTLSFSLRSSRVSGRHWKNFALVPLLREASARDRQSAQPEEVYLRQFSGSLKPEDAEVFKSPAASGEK
- experiment_summary: FLIPR Ca2+ assay, reduction of L-Menthol activation of TRPV1
- measurement_parameters: antagonist 100 μM against 1 mM L-Menthol
Threshold rule: Average Ca2+ Counts greater than or equal to 1000 Counts is TRUE; below that, FALSE.

Please review the following examples before continuing.
O=C(C=Cc1ccccc1)OCC=Cc1ccccc1 [3-phenyl-2-propen-1-yl 3-phenylacrylate]; TRUE
C=CCCCC(=O)OCC [ethyl 5-hexenoate]; TRUE
O=CCc1ccccc1; FALSE
CC(O)c1ccccc1 (racemic) [(+−)-1-phenylethanol]; TRUE

*Q* Test whether the molecule `COc1ccccc1C=O` records Average Ca2+ Counts of 1000 Counts or higher.
*A* TRUE

*Q* Test whether the molecule C/C=C/C(=O)OCC/C=C\CC [crotonic acid cis-3-hexen-1-yl ester] records Average Ca2+ Counts of 1000 Counts or higher.
*A* TRUE
